test: Second order rate constant of the reaction between miniprotein (MP) and capture agent (CA), LC-MS TIC peak integration; type: biochemical; details: 0.1 mM MP, 0.5 mM CA, 5 mM TCEP, 1× selection buffer pH 7.4, RT
No end group written: not given here.
Measured parameter: Second order rate constant (M⁻¹ s⁻¹)
Answer in M⁻¹ s⁻¹, number only, no unit symbol.

>  <Substance>
MQHEDLCTWYGFCPSGNFTPRNLRGDSDG [MP08]

>  <Unit tag>
M⁻¹ s⁻¹

>  <Second order rate constant>
0.04

$$$$
>  <Substance>
MHQKYKMAKACFFAFLAHHKKRKLYPMSG-NH2 [triple alanine variant]

>  <Unit tag>
M⁻¹ s⁻¹

>  <Second order rate constant>
1.82

$$$$
>  <Substance>
MHQKYKMTKDCFFSFLAHHKKRKLYPMSG-NH2 [MP01]

>  <Unit tag>
M⁻¹ s⁻¹

>  <Second order rate constant>
0.34

$$$$

We next turn to a different substance, shown below.
Using the record for MRPCARRDRTLWCPFDSPAWFLLSGFSCG [MP05] , report its Second order rate constant. 0.93

Hello, the source for this data is patent US11014961B2, in case you need it.
